Catalogue of pIC50 values
molecular target: human recombinant LRRK2 protein (Homo sapiens, UniProt Q5S007); assay: LRRK2 kinase activity assay (ADP-Glo, LRRKtide peptide); details: human recombinant LRRK2 wt, LRRKtide peptide and ATP, 1 h at 37° C.
Sequence (Q5S007 whole entry): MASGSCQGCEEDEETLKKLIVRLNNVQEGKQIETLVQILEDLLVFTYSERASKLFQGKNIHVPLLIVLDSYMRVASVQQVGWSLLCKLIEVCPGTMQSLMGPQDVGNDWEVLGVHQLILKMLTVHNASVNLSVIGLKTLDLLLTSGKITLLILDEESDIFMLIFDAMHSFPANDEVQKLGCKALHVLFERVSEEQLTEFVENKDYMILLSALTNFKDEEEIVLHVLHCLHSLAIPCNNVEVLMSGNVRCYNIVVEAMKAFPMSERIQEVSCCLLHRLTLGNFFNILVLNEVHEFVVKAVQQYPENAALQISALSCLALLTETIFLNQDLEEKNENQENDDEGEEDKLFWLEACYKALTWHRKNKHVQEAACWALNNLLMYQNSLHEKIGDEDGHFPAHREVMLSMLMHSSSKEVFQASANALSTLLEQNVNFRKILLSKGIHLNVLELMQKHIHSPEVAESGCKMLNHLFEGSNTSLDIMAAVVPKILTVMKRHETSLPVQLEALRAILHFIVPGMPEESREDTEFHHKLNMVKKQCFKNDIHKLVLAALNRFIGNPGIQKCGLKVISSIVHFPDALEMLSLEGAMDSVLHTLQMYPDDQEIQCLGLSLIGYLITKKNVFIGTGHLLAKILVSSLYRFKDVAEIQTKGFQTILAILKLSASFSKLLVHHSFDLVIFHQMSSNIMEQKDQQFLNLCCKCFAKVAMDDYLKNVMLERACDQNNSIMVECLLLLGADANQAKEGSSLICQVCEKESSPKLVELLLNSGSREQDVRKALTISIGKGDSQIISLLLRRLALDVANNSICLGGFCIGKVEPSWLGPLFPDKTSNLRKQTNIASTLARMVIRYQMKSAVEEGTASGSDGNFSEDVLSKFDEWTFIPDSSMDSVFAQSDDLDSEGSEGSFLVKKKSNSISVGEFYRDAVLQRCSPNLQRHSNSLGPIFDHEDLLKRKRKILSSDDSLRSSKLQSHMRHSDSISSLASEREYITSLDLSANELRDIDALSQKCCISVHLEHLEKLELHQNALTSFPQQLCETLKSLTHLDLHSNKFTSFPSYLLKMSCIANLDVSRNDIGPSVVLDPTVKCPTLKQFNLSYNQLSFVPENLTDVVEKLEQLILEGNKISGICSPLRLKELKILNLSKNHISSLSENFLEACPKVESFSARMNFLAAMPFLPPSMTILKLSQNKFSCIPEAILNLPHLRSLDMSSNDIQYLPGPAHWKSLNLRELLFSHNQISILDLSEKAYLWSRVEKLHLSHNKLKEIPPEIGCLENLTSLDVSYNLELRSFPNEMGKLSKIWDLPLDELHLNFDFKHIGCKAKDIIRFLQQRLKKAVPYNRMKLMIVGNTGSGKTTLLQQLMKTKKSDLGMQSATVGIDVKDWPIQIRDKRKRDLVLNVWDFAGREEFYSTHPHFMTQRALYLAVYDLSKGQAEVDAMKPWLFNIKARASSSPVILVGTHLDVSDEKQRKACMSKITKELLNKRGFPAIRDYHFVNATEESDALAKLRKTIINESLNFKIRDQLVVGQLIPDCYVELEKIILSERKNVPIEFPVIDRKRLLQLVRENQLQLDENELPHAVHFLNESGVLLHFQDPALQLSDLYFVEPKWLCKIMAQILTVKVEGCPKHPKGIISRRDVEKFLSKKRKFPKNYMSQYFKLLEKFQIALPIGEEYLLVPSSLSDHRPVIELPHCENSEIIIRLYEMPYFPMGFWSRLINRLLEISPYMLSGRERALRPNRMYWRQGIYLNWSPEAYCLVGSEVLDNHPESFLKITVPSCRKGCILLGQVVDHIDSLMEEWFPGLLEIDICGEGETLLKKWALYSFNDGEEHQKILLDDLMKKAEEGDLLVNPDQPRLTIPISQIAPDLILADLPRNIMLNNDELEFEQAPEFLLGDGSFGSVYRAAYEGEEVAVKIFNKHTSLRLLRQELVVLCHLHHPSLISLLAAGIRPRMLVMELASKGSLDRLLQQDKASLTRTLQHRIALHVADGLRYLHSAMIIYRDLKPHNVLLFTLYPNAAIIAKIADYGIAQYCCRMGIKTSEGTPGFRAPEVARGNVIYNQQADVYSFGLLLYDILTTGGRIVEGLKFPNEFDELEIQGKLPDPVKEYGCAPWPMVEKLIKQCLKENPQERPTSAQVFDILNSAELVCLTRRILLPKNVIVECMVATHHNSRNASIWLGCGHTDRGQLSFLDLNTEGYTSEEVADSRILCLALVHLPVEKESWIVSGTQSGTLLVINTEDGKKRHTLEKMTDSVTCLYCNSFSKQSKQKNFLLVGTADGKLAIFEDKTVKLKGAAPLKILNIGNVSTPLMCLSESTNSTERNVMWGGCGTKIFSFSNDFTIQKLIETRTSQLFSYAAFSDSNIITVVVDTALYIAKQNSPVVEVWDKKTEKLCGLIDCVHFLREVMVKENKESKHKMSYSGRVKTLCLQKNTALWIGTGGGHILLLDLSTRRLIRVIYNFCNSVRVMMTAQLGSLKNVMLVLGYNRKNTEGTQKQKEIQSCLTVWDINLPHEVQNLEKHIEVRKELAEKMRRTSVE
pIC50: −log10 of the molar value.
reported.property: pIC50

{"columns": ["molecule", "obs.value"],
 "data": [
  ["c1cc2cc(c1)-c1n[nH]c3ccc(cc13)OCCCNCCC2", "> 8.00"],
  ["O=C1COc2cccc(c2)-c2n[nH]c3ccc(cc23)OCCN1", "> 6.00"],
  ["C[C@@H]1COc2ccc3[nH]nc(c3c2)-c2cnn(c2)CCOCCO1", "> 8.00"],
  ["c1cc2[nH]nc3c2cc1OCCOCCOCCn1cc-3cn1", "> 8.00"],
  ["C[C@H]1CCOCCCc2csc(n2)-c2n[nH]c3ccc(cc23)O1", "> 8.00"],
  ["O=C1COc2cc(Cl)cc(c2)-c2n[nH]c3ccc(cc23)OCCCN1", "> 8.00"],
  ["C[C@@H]1OCCOCCn2cc(cn2)-c2n[nH]c3ccc(cc23)O[C@H]1C", "> 8.00"],
  ["C[C@@H]1COCCOCC(F)n2cc(cn2)-c2n[nH]c3ccc(cc23)O1 (single isomer, unassigned) [Example 106]", "> 7.00"],
  ["C[C@@H]1COCC[C@H](C)Oc2ccc3[nH]nc(c3c2)-c2cncc(c2)O1", "> 8.00"],
  ["COC1CN(c2cc3nc(n2)OCCCOC[C@H](C)Oc2ccc4[nH]nc-3c4c2)C1", "> 8.00"],
  ["c1ncc2cc1CCOCCOCCOc1ccc3[nH]nc-2c3c1", "> 7.00"],
  ["C[C@H]1COCCOC[C@H](C)n2cc(cn2)-c2n[nH]c3ccc(cc23)O1", "> 8.00"],
  ["C[C@H]1COCCO[C@H](C)c2cncc(c2)-c2n[nH]c3ccc(cc23)O1", "> 7.00"],
  ["C[C@H]1CCOCCCc2cccc(c2)-c2n[nH]c3ccc(cc23)O1", "> 8.00"],
  ["C[C@H]1CCOC[C@H](C)Oc2nccc(n2)-c2n[nH]c3ccc(cc23)O1", "> 7.00"],
  ["C[C@@H]1COCCCOc2nccc(n2)-c2n[nH]c3ccc(cc23)O1", "> 8.00"],
  ["c1cc2[nH]nc3c2cc1OCCCNCCCn1ncc-3n1", "> 8.00"],
  ["C[C@@H]1COCCOCCn2cc(cn2)-c2n[nH]c3ccc(cc23)O1", "> 8.00"]
]}

Origin of measurements: patent US20240246992A1
